The compounds listed here are annotated with their inhibition.
molecular target: Aurora kinase C (Homo sapiens) (UniProt Q9UQB9); conditions: at 1 µM;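 note: reported value is a mean inhibition of Aurora-C from the GSK PKIS screening panel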
Sequence (Q9UQB9 whole entry): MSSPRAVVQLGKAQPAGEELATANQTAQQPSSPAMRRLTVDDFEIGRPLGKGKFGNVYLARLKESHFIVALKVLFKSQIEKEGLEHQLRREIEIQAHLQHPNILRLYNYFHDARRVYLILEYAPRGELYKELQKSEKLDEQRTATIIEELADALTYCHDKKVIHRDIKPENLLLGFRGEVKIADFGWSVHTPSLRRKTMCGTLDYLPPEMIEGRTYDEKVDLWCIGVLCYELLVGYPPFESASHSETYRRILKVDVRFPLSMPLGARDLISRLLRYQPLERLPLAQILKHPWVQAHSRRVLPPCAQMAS
Report as a plain number; the unit % is understood.

COMPOUND STRUCTURE: CCNC(=O)O[C@H]1CN[C@H](C#Cc2cc3ncnc(Nc4ccc(OCc5cccc(F)c5)c(Cl)c4)c3s2)C1
UNIT SYMBOL: %
inhibition: 12
//
COMPOUND STRUCTURE: COc1ccc(-c2oc3ncnc(N)c3c2-c2ccc(NC(=O)Nc3cc(C(F)(F)F)ccc3F)cc2)cc1
UNIT SYMBOL: %
inhibition: 76.2
//
COMPOUND STRUCTURE: COc1ccc2[nH]c3c4[nH]c5ccc(OC)cc5c4c4c(c3c2c1)C(=O)NC4=O
UNIT SYMBOL: %
inhibition: 86.8

## Task Look up inhibition with Aurora kinase C (Homo sapiens) (UniProt Q9UQB9) for this compound: FC(F)(F)c1cccc(-c2nn3ncccc3c2-c2ccnc(Nc3ccc4c(c3)OCCO4)n2)c1
## Result 19.9

----------
biological target: Cyclin-dependent kinase 6 (Homo sapiens) (UniProt Q00534); settings: at 0.1 µM;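 note: mean percent inhibition of CDK6 complexed with cyclin D3, from the GSK PKIS kinase inhibitor screen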
Sequence (Q00534 whole entry): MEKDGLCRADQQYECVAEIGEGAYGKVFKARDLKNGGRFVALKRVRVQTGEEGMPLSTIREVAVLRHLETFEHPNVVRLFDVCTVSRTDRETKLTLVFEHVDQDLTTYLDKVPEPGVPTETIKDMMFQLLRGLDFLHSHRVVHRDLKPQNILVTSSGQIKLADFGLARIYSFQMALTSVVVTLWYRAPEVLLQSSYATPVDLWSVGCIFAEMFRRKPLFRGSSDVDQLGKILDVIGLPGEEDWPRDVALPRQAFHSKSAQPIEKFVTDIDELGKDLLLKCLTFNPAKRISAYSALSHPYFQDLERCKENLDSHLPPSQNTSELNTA
QUANTITY: inhibition (%)
Report as a plain number; the unit % is understood.

COMPOUND STRUCTURE: c1cc(-c2cnn3nc(N4CCOCC4)ccc23)nc(NC2CC2)n1
inhibition, %: 11.8
//
COMPOUND STRUCTURE: FC(F)(F)c1cccc(-c2nn3ncccc3c2-c2ccnc(Nc3ccc4c(c3)OCCO4)n2)c1
inhibition, %: -1.79
//
COMPOUND STRUCTURE: NS(=O)(=O)c1ccc(Nc2ncc(-c3ccccc3)o2)cc1
inhibition, %: 13.1

# evaluate next
## Task Query (molecule): CC(=O)Nc1cccc(C#Cc2cncnc2Nc2ccc(OCc3cccc(F)c3)c(Cl)c2)c1 ; field requested: inhibition
## Result -0.8

----------
tested on: Epidermal growth factor receptor (Homo sapiens), P00533 [L861Q]; details: at 1 µM
Sequence (P00533 whole entry L861Q): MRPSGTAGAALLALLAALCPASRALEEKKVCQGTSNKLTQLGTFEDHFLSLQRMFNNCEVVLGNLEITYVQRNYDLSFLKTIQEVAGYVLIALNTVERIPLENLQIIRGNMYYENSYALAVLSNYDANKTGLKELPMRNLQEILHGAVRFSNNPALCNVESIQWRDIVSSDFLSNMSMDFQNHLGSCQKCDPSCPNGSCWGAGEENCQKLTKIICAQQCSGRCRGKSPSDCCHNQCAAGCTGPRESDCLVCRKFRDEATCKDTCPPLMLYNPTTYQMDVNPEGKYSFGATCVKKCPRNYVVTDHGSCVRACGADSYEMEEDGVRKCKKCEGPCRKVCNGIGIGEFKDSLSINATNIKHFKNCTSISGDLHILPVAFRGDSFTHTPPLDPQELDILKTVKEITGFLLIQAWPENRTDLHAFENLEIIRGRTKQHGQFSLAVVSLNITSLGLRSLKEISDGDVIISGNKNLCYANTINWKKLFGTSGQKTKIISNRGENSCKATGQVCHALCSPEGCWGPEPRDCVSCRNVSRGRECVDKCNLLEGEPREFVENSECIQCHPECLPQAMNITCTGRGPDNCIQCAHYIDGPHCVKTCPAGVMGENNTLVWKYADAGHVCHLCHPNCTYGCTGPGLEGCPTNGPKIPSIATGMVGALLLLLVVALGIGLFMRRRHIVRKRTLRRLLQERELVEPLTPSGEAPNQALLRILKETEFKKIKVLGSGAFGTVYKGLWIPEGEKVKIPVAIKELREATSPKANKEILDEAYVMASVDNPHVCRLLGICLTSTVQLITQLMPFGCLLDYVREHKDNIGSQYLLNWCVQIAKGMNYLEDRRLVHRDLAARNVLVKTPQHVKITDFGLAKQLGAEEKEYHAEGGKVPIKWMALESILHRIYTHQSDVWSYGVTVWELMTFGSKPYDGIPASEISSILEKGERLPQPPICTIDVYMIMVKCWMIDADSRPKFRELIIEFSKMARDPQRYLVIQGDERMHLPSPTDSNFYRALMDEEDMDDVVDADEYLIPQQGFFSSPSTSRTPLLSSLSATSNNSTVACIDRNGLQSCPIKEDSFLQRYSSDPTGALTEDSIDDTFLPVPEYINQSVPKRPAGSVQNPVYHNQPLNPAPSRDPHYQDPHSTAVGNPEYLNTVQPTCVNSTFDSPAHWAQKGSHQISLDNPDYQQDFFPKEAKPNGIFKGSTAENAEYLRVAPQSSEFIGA
The compounds listed here are annotated with their inhibition.
Report as a plain number; the unit % is understood.

## Task Look up inhibition with Epidermal growth factor receptor (Homo sapiens), P00533 [L861Q] for this compound: c1ccc(COc2ccc(Nc3ncnc4ccc(-c5ccco5)cc34)cc2)cc1
## Result 36.1

## Task Look up inhibition with Epidermal growth factor receptor (Homo sapiens), P00533 [L861Q] for this compound: CCn1c(-c2nonc2N)nc2c(C#CC(C)(C)O)nc(OC[C@H](N)c3ccccc3)cc21
## Result 2.36

----------
molecular target: Tyrosine-protein kinase Blk (Homo sapiens) (UniProt P51451); conditions: at 0.1 µM
Sequence (P51451 2-505 limits assumed): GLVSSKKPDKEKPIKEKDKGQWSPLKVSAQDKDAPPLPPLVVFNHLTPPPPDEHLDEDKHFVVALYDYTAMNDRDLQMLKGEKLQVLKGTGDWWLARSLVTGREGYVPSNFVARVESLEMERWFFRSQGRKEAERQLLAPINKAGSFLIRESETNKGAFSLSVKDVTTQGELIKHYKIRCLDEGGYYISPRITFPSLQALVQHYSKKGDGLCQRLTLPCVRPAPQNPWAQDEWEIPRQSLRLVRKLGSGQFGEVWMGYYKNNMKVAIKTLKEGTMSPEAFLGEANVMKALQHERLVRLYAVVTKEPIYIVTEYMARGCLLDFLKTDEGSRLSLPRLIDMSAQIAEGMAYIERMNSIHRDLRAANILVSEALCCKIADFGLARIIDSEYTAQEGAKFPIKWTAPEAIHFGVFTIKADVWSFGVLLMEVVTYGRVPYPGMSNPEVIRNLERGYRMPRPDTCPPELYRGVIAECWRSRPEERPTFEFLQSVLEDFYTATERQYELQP
The compounds listed here are annotated with their inhibition.
Report as a plain number; the unit % is understood.

Worked cases, answers included:
COMPOUND STRUCTURE: c1ccc(COc2ccc(Nc3ncnc4ccc(-c5ccco5)cc34)cc2)cc1
TARGET OR TEST SYSTEM: Tyrosine-protein kinase Blk (Homo sapiens) (UniProt P51451)
inhibition [%]: 1.56
//
COMPOUND STRUCTURE: CC(=O)NCc1cccc(C#Cc2cncnc2Nc2ccc(OCc3cccc(F)c3)c(Cl)c2)c1
TARGET OR TEST SYSTEM: Tyrosine-protein kinase Blk (Homo sapiens) (UniProt P51451)
inhibition [%]: -0.03
//
COMPOUND STRUCTURE: CCn1cc(-c2ccnc3[nH]ccc23)c(-c2cccc(NC(=O)Nc3ccc(OCc4ccccc4)cc3)c2)n1
TARGET OR TEST SYSTEM: Tyrosine-protein kinase Blk (Homo sapiens) (UniProt P51451)
inhibition [%]: 2.54
//
COMPOUND STRUCTURE: NC(=O)c1sc(-n2cnc3ccc(C(F)(F)F)cc32)cc1OCc1ccccc1Br
TARGET OR TEST SYSTEM: Tyrosine-protein kinase Blk (Homo sapiens) (UniProt P51451)
inhibition [%]: 2.51
//
COMPOUND STRUCTURE: O=C(Nc1n[nH]c2cc(-c3ccc(F)cc3)ccc12)C1CC1
TARGET OR TEST SYSTEM: Tyrosine-protein kinase Blk (Homo sapiens) (UniProt P51451);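 note: reported value is the mean percent inhibition of BLK kinase activity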
inhibition [%]: 1.55

# evaluate next
## Task Query (compound): Fc1cccc(COc2ccc(Nc3ncnc4sc(-c5ccco5)cc34)cc2Cl)c1 ; field requested: inhibition
## Result 4

----------
biological target: Cyclin-dependent kinase 1 (Homo sapiens); conditions: at 0.1 µM;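 note: enzyme assay on the CDK1/cyclin B complex, reported as mean percent inhibition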
The compounds listed here are annotated with their inhibition.
Report as a plain number; the unit % is understood.

Worked cases, answers included:
COMPOUND STRUCTURE: Nc1nc(-c2cccc(Cl)c2)c(-c2ccc3ncccc3n2)s1
UNIT SYMBOL: %
RESULT NUMBER: 0.61
//
COMPOUND STRUCTURE: O=C(Nc1n[nH]c2cc(-c3ccc(F)cc3)ccc12)C1CC1
UNIT SYMBOL: %
RESULT NUMBER: 0.08
//
COMPOUND STRUCTURE: CS(=O)(=O)CCNCc1ccc(-c2ccc3ncnc(Nc4ccc(OCc5ccccc5)c(C(F)(F)F)c4)c3c2)o1
UNIT SYMBOL: %
RESULT NUMBER: 0.28
//
COMPOUND STRUCTURE: COc1cc(/C=N/Nc2ncnc3[nH]ncc23)ccc1O
UNIT SYMBOL: %
RESULT NUMBER: 2.77
//
COMPOUND STRUCTURE: COC(=O)c1sc(-n2cnc3cc(OC)c(OC)cc32)cc1OCc1ccccc1C(F)(F)F
UNIT SYMBOL: %
RESULT NUMBER: -0.15

## Task Query (compound): COc1cc(Nc2nccc(Nc3ccc4c(C)n[nH]c4c3)n2)cc(OC)c1OC ; field requested: inhibition
## Result 0.71

## Task Query (compound): COc1cc2ncn(-c3cc(OCc4ccccc4C(F)(F)F)c(C(=O)N(C)C)s3)c2cc1OC ; field requested: inhibition
## Result 0.2

## Task Query (compound): CNC(=O)c1cc(-c2ccc(F)cc2)cc(-c2ccc(S(=O)(=O)N3CCCC3)cc2)c1N ; field requested: inhibition
## Result -0.56

## Task Query (compound): NC(=O)c1sc(-n2cnc3ccc(C(F)(F)F)cc32)cc1OCc1ccccc1Br ; field requested: inhibition
## Result -0.53

## Task Query (compound): COc1cc(N2CCN(C(C)C)CC2)ccc1Nc1nc(Nc2ccc(F)cc2C(N)=O)c2cc[nH]c2n1 ; field requested: inhibition
## Result 1.39

----------
molecular target: BDNF/NT-3 growth factors receptor (Homo sapiens); conditions: at 0.1 µM;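 note: each value is a mean percent inhibition of TrkB kinase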
QUANTITY: inhibition (%)
Report as a plain number; the unit % is understood.

MOLECULE: COc1ccc2c(-c3ccnc(Nc4cccc(OC(F)(F)F)c4)n3)cnn2n1
inhibition (%): 2.97

MOLECULE: NC(=O)c1sc(-n2cnc3ccc(C(F)(F)F)cc32)cc1OCc1ccccc1Br
inhibition (%): 4.43

MOLECULE: Cc1cccc2c1NC(=O)/C2=N\Nc1ccc(S(N)(=O)=O)cc1
inhibition (%): 2.26

MOLECULE: CCOc1ccc2c(-c3ccnc(Nc4cccc(C(F)(F)F)c4)n3)cnn2n1
inhibition (%): 0.03

MOLECULE: CN1CCC(n2cnc(-c3ccc(F)cc3)c2-c2ccnc(Nc3ccccc3)n2)CC1
inhibition (%): 0.31

MOLECULE: COc1cccc(-c2c[nH]c3c(N/N=C/c4ccncc4)ncnc23)c1
inhibition (%): 2.41

MOLECULE: CCn1c(-c2nonc2N)nc2c(C#CC(C)(C)O)ncc(OC3CCNCC3)c21
inhibition (%): 1.42

MOLECULE: CC1=C(C(=O)Nc2cc(Cl)c3[nH]ncc3c2)C(c2ccc(C(F)(F)F)cc2)CC(=O)N1 (stereo unspecified)
inhibition (%): 2.52

MOLECULE: N#Cc1c(NC(=O)c2ccc(F)cc2)sc2c1CCCC2
inhibition (%): 0.21

MOLECULE: COc1ccc2[nH]c3c4[nH]c5ccc(OC)cc5c4c4c(c3c2c1)C(=O)NC4=O
inhibition (%): 7.79

# evaluate next
## Task Query (molecule): CCN(CC)S(=O)(=O)c1ccc(OC)c(Nc2ncc(-c3ccccc3)o2)c1 ; field requested: inhibition
## Result 5.72

----------
The compounds listed here are annotated with their inhibition.
molecular target: Receptor tyrosine-protein kinase erbB-2 (Homo sapiens); details: at 0.1 µM;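 note: each value is the mean percent inhibition of ERBB2 over replicate measurements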
Report as a plain number; the unit % is understood.

Worked cases, answers included:
COMPOUND STRUCTURE: CN1CCC(n2cnc(-c3ccc(F)cc3)c2-c2ccnc(N)n2)CC1
RESULT NUMBER: 1.81

COMPOUND STRUCTURE: Clc1ccc(-c2nn3ncccc3c2-c2ccnc(Nc3ccccc3)n2)cc1
RESULT NUMBER: -4.83

COMPOUND STRUCTURE: Fc1ccc(-c2nn3ccccc3c2-c2ccncc2)cc1
RESULT NUMBER: 1.52

COMPOUND STRUCTURE: COc1cccc(-n2ncc3c(N/N=C/c4ccc(F)cc4)ncnc32)c1
RESULT NUMBER: 2.86

COMPOUND STRUCTURE: Nc1nc(-c2ccc(F)cc2)c(-c2ccc3ncccc3n2)s1
RESULT NUMBER: 4.65

## Task Query (compound): Cc1cccc2c1NC(=O)/C2=N\Nc1ccc(S(N)(=O)=O)cc1 ; field requested: inhibition
## Result 0.78

## Task Query (compound): COc1ccc2c(-c3ccnc(Nc4cccc(OC(F)(F)F)c4)n3)cnn2n1 ; field requested: inhibition
## Result 1.6

## Task Query (compound): NC(=O)c1sc(-n2cnc3ccc(C(F)(F)F)cc32)cc1OCc1ccccc1Br ; field requested: inhibition
## Result 1.83

## Task Query (compound): CCCN(CCS(C)(=O)=O)Cc1ccc(-c2ccc3ncnc(Nc4ccc(OCc5cccc(F)c5)c(Cl)c4)c3c2)o1 ; field requested: inhibition
## Result 19.1

## Task Query (compound): NS(=O)(=O)c1ccc(Nc2ncc(-c3ccccc3)o2)cc1 ; field requested: inhibition
## Result 2.57

## Task Query (compound): COc1cc(Nc2nccc(Nc3ccc4c(C)n[nH]c4c3)n2)cc(OC)c1OC ; field requested: inhibition
## Result -1.05
